The origin of these recorded values is PubChem BioAssay (EPA / NIEHS).

# protocol notes: ATG_E_Box_CIS: Attagene CIS-FACTORIAL HepG2 Assay for human Enhancer Box (E-box) (AID 2282936)
# measurement context: HepG2 E-box cis-reporter transcription, actives raise or lower the signal
Active and inactive are the calls of the source. Rule for the calls: active = hit-call score of the fitted dose curve at least 0.9, where 1 is the maximum; inactive = score below 0.9.

| compound | AC50 |
| --- | --- |
| CC[Si](OC(C)=O)(OC(C)=O)OC(C)=O | inactive |
| C=CC(C)(O)CCC=C(C)CCC=C(C)C (stereo not drawn) | 131 µM (active) |
| CC(C)=CCCC(C)=CCCC(C)=CCO | inactive |

* * *

# target system: Nuclear respiratory factor 1 (Homo sapiens) (UniProt Q16656)
# Sequence (Q16656 whole entry, looked up): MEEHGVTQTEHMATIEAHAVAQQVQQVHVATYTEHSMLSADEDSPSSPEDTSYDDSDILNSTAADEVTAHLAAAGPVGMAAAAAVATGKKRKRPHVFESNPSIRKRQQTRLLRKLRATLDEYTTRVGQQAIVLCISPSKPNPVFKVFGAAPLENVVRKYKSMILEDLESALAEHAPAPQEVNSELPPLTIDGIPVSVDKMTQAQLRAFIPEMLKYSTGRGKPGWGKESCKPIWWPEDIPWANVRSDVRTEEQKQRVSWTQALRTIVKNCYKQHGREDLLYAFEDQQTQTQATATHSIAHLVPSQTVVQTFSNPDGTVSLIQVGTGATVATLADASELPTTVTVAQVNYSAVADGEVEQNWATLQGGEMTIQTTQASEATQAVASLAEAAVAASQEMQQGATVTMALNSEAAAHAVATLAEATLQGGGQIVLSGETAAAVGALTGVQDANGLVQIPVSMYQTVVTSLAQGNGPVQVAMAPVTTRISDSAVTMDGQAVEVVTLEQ
# protocol notes: ATG_NRF1_CIS: Attagene CIS-FACTORIAL HepG2 Assay for human Nuclear Respiratory Factor 1 (NRF1) Orphan Gene (AID 2282987)
# measurement context: HepG2 NRF1 cis-element reporter, Attagene multiplex; actives raise or lower the signal
Active and inactive are the calls of the source. Rule for the calls: active = hit-call score of the fitted dose curve at least 0.9, where 1 is the maximum; inactive = score below 0.9.
Your answer must be one of the following: active, inactive

Please review the entries below; each comes with its answer.
| molecule | class assignment |
| --- | --- |
| C=C(C)C(=O)O | inactive |
| CC(C)(N)CO | inactive |
| CCCC(=O)c1cc(O)c(O)cc1O | inactive |
| C=C[C@@H](C)CCC=C(C)C | inactive |
| C=CC[N+](C)(C)CC=C | inactive |

Ask: // return assay outcome for CC(=O)OCCC(C)CC(C)(C)C (stereo unspecified)
Reply: inactive
